As a worked illustration, we turn to log10 Ki data collected for UniProt P14842.
Sequence (P14842 whole entry): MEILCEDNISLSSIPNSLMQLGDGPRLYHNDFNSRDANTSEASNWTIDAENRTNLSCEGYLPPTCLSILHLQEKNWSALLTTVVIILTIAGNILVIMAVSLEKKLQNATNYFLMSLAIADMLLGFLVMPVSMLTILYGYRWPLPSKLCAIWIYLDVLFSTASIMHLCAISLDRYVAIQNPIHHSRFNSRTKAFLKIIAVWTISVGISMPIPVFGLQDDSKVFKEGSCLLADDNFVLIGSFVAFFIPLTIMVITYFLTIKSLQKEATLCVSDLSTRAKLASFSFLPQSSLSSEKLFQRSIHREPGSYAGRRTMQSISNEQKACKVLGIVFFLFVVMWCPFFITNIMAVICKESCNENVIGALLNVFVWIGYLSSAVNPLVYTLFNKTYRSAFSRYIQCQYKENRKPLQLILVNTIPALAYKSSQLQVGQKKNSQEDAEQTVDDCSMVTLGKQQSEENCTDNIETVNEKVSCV
Please note: log10 values; quantity Ki; unit nM.

query: What log10 Ki appears in the records for this compound with UniProt P14842? COc1cc(OC)c(OC)cc1CC(C)N (configuration not stated)
result: 3.08

query: Field entry: CCCCCCc1ccc2c(c1)Cc1ccccc1C2CN (configuration not stated)
result: 0.85

query: Field entry: COc1ccc2c(c1)Cc1ccccc1C2CN (configuration not stated)
result: 0.88

query: Field entry: NCC1c2ccccc2Cc2cc(Br)ccc21 (configuration not stated)
result: 0.11

query: Field entry: CCCCCCc1cc(OC)c(CC(C)N)cc1OC (configuration not stated)
result: 0.40

query: Field entry: NCC1c2ccccc2Cc2cc(CCCc3ccccc3)ccc21 (configuration not stated)
result: 0.51

query: Field entry: COc1cc(CC(C)N)c(OC)cc1CCCc1ccccc1 (configuration not stated)
result: 1.00
